Each item that follows carries a reported IC50.
target: UniProtKB O60885; assay: Time Resolved Fluorescence Resonance Energy Transfer (TR-FRET) binding assay, BRD4; conditions: one of the FRET assays described; read-out: FRET BRD4 IC50
endpointName: IC50

- molecule: "[2H]C([2H])([2H])c1nnn(C)c1-c1cnc2c3c(OCC(F)F)ccc(S(C)(=O)=O)c3n(C(c3ncccc3F)C3CCOCC3)c2c1 (stereo not shown) [Example 246]"
  measuredOn: "UniProtKB O60885"
  valueReported: "< 1500 nM"
- molecule: "[2H]C([2H])([2H])c1nnn(C)c1-c1cnc2c3c(NS(=O)(=O)C4CC4)ccc(S(C)(=O)=O)c3n([C@H](c3ccccc3)C3CCOCC3)c2c1"
  measuredOn: "UniProtKB O60885"
  valueReported: "< 5 nM"
- molecule: "COC(=O)Nc1ccc2c3ncc(-c4c(C)nnn4C)cc3n([C@H](c3ccccc3)C3CCOCC3)c2c1"
  measuredOn: "UniProtKB O60885"
  valueReported: "< 5 nM"
- molecule: "Cc1noc(C)c1-c1cnc2c3ccc(C(C)(C)O)cc3n([C@@H](c3ccccn3)C3CCOCC3)c2c1"
  measuredOn: "UniProtKB O60885"
  valueReported: "< 5 nM"
- molecule: "[2H]C([2H])([2H])c1nnn(C)c1-c1cnc2c3c(F)ccc(S(C)(=O)=O)c3n([C@H](c3ccccc3)C3CCOCC3)c2c1"
  measuredOn: "UniProtKB O60885"
  valueReported: "< 5 nM"
- molecule: "Cc1noc(C)c1-c1cnc2c3ccc(C(C)(C)O)cc3n(C(c3cc(F)cc(F)c3)C3CCOCC3)c2c1 (single isomer, unassigned) [Example 130]"
  measuredOn: "UniProtKB O60885"
  valueReported: "< 5 nM"
- molecule: "Cc1noc(C)c1-c1cnc2c3ccc(S(C)(=O)=O)cc3n(Cc3ccccc3)c2c1"
  measuredOn: "UniProtKB O60885"
  valueReported: "< 25 nM"
- molecule: "Cc1nocc1-c1cnc2c3ccc(C(C)(C)O)cc3n(C(c3ccc(F)cc3)C3CCOCC3)c2c1 (single isomer, unassigned) [Example 42]"
  measuredOn: "UniProtKB O60885"
  valueReported: "< 25 nM"
- molecule: "Cc1nnn(C)c1-c1cnc2c3ccc(CC(C)(C)O)cc3n([C@H](c3ccccc3)C3CCOCC3)c2c1"
  measuredOn: "UniProtKB O60885"
  valueReported: "< 5 nM"
- molecule: "[2H]C([2H])([2H])c1nnn(C)c1-c1cnc2c3c(OC)cc(C(C)(C)O)cc3n(C(c3ccncc3F)C3CCOCC3)c2c1 (stereo not shown) [Example 348]"
  measuredOn: "UniProtKB O60885"
  valueReported: "< 5 nM"
- molecule: "Cc1noc(C)c1-c1cnc2c3ccccc3n(Cc3ccccc3)c2c1"
  measuredOn: "UniProtKB O60885"
  valueReported: "< 1500 nM"
- molecule: "Cc1cc(C(C2CCOCC2)n2c3cc(C(C)(C)O)ccc3c3ncc(-c4c(C)nnn4C)cc32)n(C)n1 (single isomer, unassigned) [Example 342]"
  measuredOn: "UniProtKB O60885"
  valueReported: "< 25 nM"
- molecule: "[2H]C([2H])([2H])c1nnn(C)c1-c1cnc2c3ccc(C(C)(C)O)c(F)c3n([C@H](c3ccc(F)cc3)C3CCOCC3)c2c1"
  measuredOn: "UniProtKB O60885"
  valueReported: "< 5 nM"
